Experiment: In vitro metabolic stability in human plasma
Assay type: in vitro ADME
Conditions: human, plasma, 37° C., 10 μM compound, read-out: Human plasma T1/2
Reported half-life at 10 µM values for the following compounds.
Write the numeric value and follow it with the unit.

Solved entries (count: 3):
[
  {
    "compound": "CC[C@@H](C(C)OC(=O)OC(C)OC(=O)CCCCOS(=O)(=O)[O-])n1ncn(-c2ccc(N3CCN(c4ccc(OC[C@@H]5CO[C@@](Cn6cncn6)(c6ccc(F)cc6F)C5)cc4)CC3)cc2)c1=O.[Na+] (stereo partly shown) [ST0078]",
    "half-life at 10 µM": "2.22 min"
  },
  {
    "compound": "CC[C@@H]([C@H](C)O)n1ncn(-c2ccc(N3CCN(c4ccc(OC[C@@H]5CO[C@@](Cn6c[n+](C(C)OC(=O)N(C)c7ncccc7COC(=O)[C@@H](N)CO)cn6)(c6ccc(F)cc6F)C5)cc4)CC3)cc2)c1=O (stereo partly shown) [ST0025]",
    "half-life at 10 µM": "0.92 min"
  },
  {
    "compound": "CC[C@@H]([C@H](C)OC(=O)OC(C)OC(=O)Cc1ccc(OS(=O)(=O)[O-])cc1)n1ncn(-c2ccc(N3CCN(c4ccc(OC[C@@H]5CO[C@@](Cn6cncn6)(c6ccc(F)cc6F)C5)cc4)CC3)cc2)c1=O.[Na+] (stereo partly shown) [ST0080]",
    "half-life at 10 µM": "12.8 min"
  }
]

Continue with the next compound.
Look up half-life at 10 µM for this compound: CC[C@@H]([C@H](C)OC(=O)OC(C)OC(=O)CCCCCCCOS(=O)(=O)[O-])n1ncn(-c2ccc(N3CCN(c4ccc(OC[C@@H]5CO[C@@](Cn6cncn6)(c6ccc(F)cc6F)C5)cc4)CC3)cc2)c1=O.[Na+] (stereo partly shown) [ST0082]
8.99 min

---

Test system: Candida albicans ATCC10231
Test: Candida albicans vaginitis in mice, intragastric administration
Type: in vivo, KM mice
Conditions: logarithm of the CFU values, mean ± SD of 20 mice; 20 mg/kg intragastric once a day; day 5
endpointName: vaginal fungal load of mice, day 5
Keep the answer to the number alone.

Solved entries (count: 4):
[
  {
    "compound": "CC[C@@H]([C@H](C)O)n1ncn(-c2ccc(N3CCN(c4ccc(OC[C@@H]5CO[C@@](Cn6c[n+](C(C)OC(=O)N(C)c7ncccc7COC(=O)[C@@H](N)CCN)cn6)(c6ccc(F)cc6F)C5)cc4)CC3)cc2)c1=O (some centres unmarked)",
    "testedTarget": "Candida albicans ATCC10231",
    "vaginal fungal load of mice, day 5": 4.18
  },
  {
    "compound": "CC[C@@H]([C@H](C)OC(=O)[C@@H](N)CO)n1ncn(-c2ccc(N3CCN(c4ccc(OC[C@@H]5CO[C@@](Cn6c[n+](C(C)OC(=O)N(C)c7ncccc7COC(=O)[C@@H](N)CCCN)cn6)(c6ccc(F)cc6F)C5)cc4)CC3)cc2)c1=O (some centres unmarked)",
    "testedTarget": "Candida albicans ATCC10231",
    "vaginal fungal load of mice, day 5": 4.38
  },
  {
    "compound": "CC[C@@H]([C@H](C)O)n1ncn(-c2ccc(N3CCN(c4ccc(OC[C@@H]5CO[C@@](Cn6c[n+](C(C)OC(=O)N(C)c7ncccc7COC(=O)[C@@H](N)CCCNC(N)=O)cn6)(c6ccc(F)cc6F)C5)cc4)CC3)cc2)c1=O (some centres unmarked)",
    "testedTarget": "Candida albicans ATCC10231",
    "vaginal fungal load of mice, day 5": 4.12
  },
  {
    "compound": "CC[C@@H]([C@H](C)O)n1ncn(-c2ccc(N3CCN(c4ccc(OC[C@@H]5CO[C@@](Cn6c[n+](C(C)OC(=O)N(C)c7ccccc7COC(=O)[C@@H](N)CCCN)cn6)(c6ccc(F)cc6F)C5)cc4)CC3)cc2)c1=O (some centres unmarked)",
    "testedTarget": "Candida albicans ATCC10231",
    "vaginal fungal load of mice, day 5": 4.34
  }
]

Continue with the next compound.
Look up vaginal fungal load of mice, day 5 for this compound: CC[C@@H]([C@H](C)O)n1ncn(-c2ccc(N3CCN(c4ccc(OC[C@@H]5CO[C@@](Cn6c[n+](C(C)OC(=O)N(C)c7ncccc7COC(=O)CN)cn6)(c6ccc(F)cc6F)C5)cc4)CC3)cc2)c1=O (some centres unmarked)
4.35

---

Test system: Candida albicans ATCC10231
Assay: Systemic fungal infection in mice, intragastric administration
Type: in vivo, ICR mice
Conditions: Candida albicans, ATCC10231, po, 48 h, read-out: survival rate of mice, day 2, 20 mg/kg intragastric once daily for 5 days; day 2
Protocol: ICR mice, weighing 18-22 g, male, provided by Hubei Experimental Animal Center. Prior to the experiment, a small amount of Candida albicans was picked from an SDA medium kept at 4° C. with an inoculation loop and inoculated into 1 ml YPD culture medium, cultured at 30° C. with 200 rpm shaking and activated for 16 hours, so that the fungus was in the late stage of exponential growth. […]
Reported responders at 20 mg/kg values for the following molecules.

Solved entries (count: 3):
[
  {
    "molecule": "CC[C@@H]([C@H](C)OC(=O)OCOC(=O)CCCCCOP(=O)([O-])[O-])n1ncn(-c2ccc(N3CCN(c4ccc(OC[C@@H]5CO[C@@](Cn6cncn6)(c6ccc(F)cc6F)C5)cc4)CC3)cc2)c1=O.[Na+].[Na+] [ST0073]",
    "endpointName": "responders at 20 mg/kg",
    "endpointValue": "90%"
  },
  {
    "molecule": "CC[C@@H](C(C)OC(=O)OCOC(=O)CCCCCCOP(=O)([O-])[O-])n1ncn(-c2ccc(N3CCN(c4ccc(OC[C@@H]5CO[C@@](Cn6cncn6)(c6ccc(F)cc6F)C5)cc4)CC3)cc2)c1=O.[Na+].[Na+] (stereo partly shown) [ST0074]",
    "endpointName": "responders at 20 mg/kg",
    "endpointValue": "100%"
  },
  {
    "molecule": "CC[C@@H]([C@H](C)OC(=O)OC(C)OC(=O)CCCCCOP(=O)([O-])[O-])n1ncn(-c2ccc(N3CCN(c4ccc(OC[C@@H]5CO[C@@](Cn6cncn6)(c6ccc(F)cc6F)C5)cc4)CC3)cc2)c1=O.[Na+].[Na+] (stereo partly shown) [ST0063]",
    "endpointName": "responders at 20 mg/kg",
    "endpointValue": "90%"
  }
]

Continue with the next molecule.
Look up responders at 20 mg/kg for this molecule: CC[C@@H]([C@H](C)O)n1ncn(-c2ccc(N3CCN(c4ccc(OC[C@@H]5CO[C@@](Cn6c[n+](C(C)OC(=O)N(C)c7ccccc7COC(=O)[C@@H](N)CCCN)cn6)(c6ccc(F)cc6F)C5)cc4)CC3)cc2)c1=O (stereo partly shown) [ST0008]
90%

---

Reported responders at 20 mg/kg values for the following molecules.
Tested on: Candida albicans ATCC10231
Assay: Systemic fungal infection in mice, intragastric administration
Format: in vivo, ICR mice
Settings: Candida albicans, ATCC10231, po, 144 h; 20 mg/kg intragastric once daily for 5 days; day 6; read-out: survival rate of mice, day 6
Return type: number; implicit unit %.

[
  {
    "molecule": "CC[C@@H](C(C)OC(=O)OC(C)OC(=O)CCCCCOS(=O)(=O)[O-])n1ncn(-c2ccc(N3CCN(c4ccc(OC[C@@H]5CO[C@@](Cn6cncn6)(c6ccc(F)cc6F)C5)cc4)CC3)cc2)c1=O.[Na+] (stereo partly drawn)",
    "responders at 20 mg/kg (%)": 70
  },
  {
    "molecule": "CC[C@@H]([C@H](C)OC(=O)OC(C)OC(=O)CNC)n1ncn(-c2ccc(N3CCN(c4ccc(OC[C@@H]5CO[C@@](Cn6cncn6)(c6ccc(F)cc6F)C5)cc4)CC3)cc2)c1=O.Cl (stereo partly drawn)",
    "responders at 20 mg/kg (%)": 60
  }
]

Continue with the next molecule.
Look up responders at 20 mg/kg for this molecule: CC[C@@H]([C@H](C)OC(=O)OC(C)OC(=O)CCCCCCCOS(=O)(=O)[O-])n1ncn(-c2ccc(N3CCN(c4ccc(OC[C@@H]5CO[C@@](Cn6cncn6)(c6ccc(F)cc6F)C5)cc4)CC3)cc2)c1=O.[Na+] (stereo partly drawn)
70

---

Test: Determination of solubility in deionized water (HPLC, external standard)
Conditions: 25 °C, water, thermodynamic from solid
endpointName: solubility at 30 min

Solved entries (count: 5):
[
  {
    "compound": "CC[C@@H]([C@H](C)O)n1ncn(-c2ccc(N3CCN(c4ccc(OC[C@@H]5CO[C@@](Cn6c[n+](C(C)OC(=O)N(C)c7ncccc7COC(=O)C[C@H](N)C(=O)O)cn6)(c6ccc(F)cc6F)C5)cc4)CC3)cc2)c1=O (some centres unmarked)",
    "endpointValue": "> 50 mg/mL"
  },
  {
    "compound": "CC[C@@H](C(C)OC(=O)OC(C)OC(=O)CCCCCCCOP(=O)([O-])[O-])n1ncn(-c2ccc(N3CCN(c4ccc(OC[C@@H]5CO[C@@](Cn6cncn6)(c6ccc(F)cc6F)C5)cc4)CC3)cc2)c1=O.[Na+].[Na+] (some centres unmarked)",
    "endpointValue": "43.7 mg/mL"
  },
  {
    "compound": "CC[C@@H]([C@H](C)OP(=O)(O)O)n1ncn(-c2ccc(N3CCN(c4ccc(OC[C@@H]5CO[C@@](Cn6c[n+](C(C)OC(=O)N(C)c7ncccc7COC(=O)[C@@H](N)CCCN)cn6)(c6ccc(F)cc6F)C5)cc4)CC3)cc2)c1=O (some centres unmarked)",
    "endpointValue": "> 50 mg/mL"
  },
  {
    "compound": "CC[C@@H](C(C)OC(=O)OC(C)OC(=O)CCCCCCCCOP(=O)([O-])[O-])n1ncn(-c2ccc(N3CCN(c4ccc(OC[C@@H]5CO[C@@](Cn6cncn6)(c6ccc(F)cc6F)C5)cc4)CC3)cc2)c1=O.[Na+].[Na+] (some centres unmarked)",
    "endpointValue": "23.4 mg/mL"
  },
  {
    "compound": "CC[C@@H]([C@H](C)O)n1ncn(-c2ccc(N3CCN(c4ccc(OC[C@@H]5CO[C@@](Cn6c[n+](C(C)OC(=O)N(C)c7ncccc7COC(=O)CN)cn6)(c6ccc(F)cc6F)C5)cc4)CC3)cc2)c1=O (some centres unmarked)",
    "endpointValue": "30.8 mg/mL"
  }
]

Continue with the next compound.
Look up solubility at 30 min for this compound: CC[C@@H](C(C)OC(=O)OCOC(=O)CCCCCCOP(=O)([O-])[O-])n1ncn(-c2ccc(N3CCN(c4ccc(OC[C@@H]5CO[C@@](Cn6cncn6)(c6ccc(F)cc6F)C5)cc4)CC3)cc2)c1=O.[Na+].[Na+] (some centres unmarked)
> 50 mg/mL
